experimental target: IL-17A (Homo sapiens)
test: Inhibition of IL-17A induced IL-6 release from dermal fibroblast cell line (HDF cell line assay)
assay setup: HDF cells stimulated with IL-17A (50 pM) plus TNF-α (25 pM); IL-6 release measured by HTRF
Quick reference for IC50 among some compounds

Solved cases below.
- compound: "Cc1nonc1C(=O)N[C@H](c1cn2ncc(C3(N4C[C@@H](C(F)(F)F)NC4=O)CCN(CC(C)(C)F)CC3)nc2n1)C1CCC(F)(F)CC1 (single isomer, unassigned)"
  reading: "3.98 nM"
- compound: "Cc1nonc1C(=O)N[C@H](c1cn2ncc(C3(N4C[C@@H](C(F)(F)F)NC4=O)CCN(CC(C)(F)F)CC3)nc2n1)C1CCC(F)(F)CC1 (single isomer, unassigned)"
  reading: "3.98 nM"

Shifting focus to the compound that follows.
Q. Consider the compound Cc1nonc1C(=O)N[C@H](c1cn2ncc(C3(N4C[C@@H](C(F)(F)F)NC4=O)CCN(C)CC3)nc2n1)C1CCC(F)(F)CC1 (single isomer, unassigned) and give its measured IC50.
A. 10 nM

----------
Quick reference for pIC50 among some molecules
experimental target: IL-17A (Homo sapiens)
Sequence (Q16552 24-155): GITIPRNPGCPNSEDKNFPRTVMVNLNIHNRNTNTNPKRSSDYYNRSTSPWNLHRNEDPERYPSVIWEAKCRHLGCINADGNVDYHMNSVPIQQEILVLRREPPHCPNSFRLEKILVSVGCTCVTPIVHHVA
test: Inhibition of IL-17A induced IL-6 release from dermal fibroblast cell line (HDF cell line assay)
assay setup: HDF cells stimulated with IL-17A (50 pM) plus TNF-α (25 pM); IL-6 release measured by HTRF
Please keep in mind that pIC50 is minus log10 of the molar concentration; only the number is needed.

Solved cases below.
- molecule: "Cc1nonc1C(=O)N[C@H](c1cn2ncc(C3(N4C[C@@H](C(F)(F)F)NC4=O)CC3)nc2n1)C1CCC(F)(F)CC1 (single isomer, unassigned)"
  experimental target: "IL-17A (Homo sapiens)"
  pIC50: 6.20
- molecule: "Cc1nonc1C(=O)N[C@H](c1cn2ncc(C3(N4C[C@H](C(F)(F)F)NC4=O)CCOCC3)nc2n1)C1CCC(F)(F)CC1 (single isomer, unassigned)"
  experimental target: "IL-17A (Homo sapiens)"
  pIC50: 5.70
- molecule: "Cc1nonc1C(=O)N[C@H](c1cn2ncc(C3(N4CC(C(F)(F)F)NC4=O)CC(F)(F)C3)nc2n1)C1CCC(F)(F)CC1 (single isomer, unassigned)"
  experimental target: "IL-17A (Homo sapiens)"
  pIC50: 8.20
- molecule: "Cc1nonc1C(=O)N[C@H](c1cn2ncc(C3(N4C[C@H](C(F)(F)F)NC4=O)CC(F)(F)C3)nc2n1)C1CCC(F)(F)CC1 (single isomer, unassigned)"
  experimental target: "IL-17A (Homo sapiens)"
  pIC50: 6.00
- molecule: "Cc1nonc1C(=O)N[C@H](c1cn2ncc(C3(N4C[C@H](C(F)(F)F)NC4=O)CCN(CC(C)(C)F)CC3)nc2n1)C1CCC(F)(F)CC1 (single isomer, unassigned)"
  experimental target: "IL-17A (Homo sapiens)"
  pIC50: 6.60

Q. Consider the molecule Cc1nonc1C(=O)N[C@H](c1cn2ncc(C3(N4CC(C(F)(F)F)NC4=O)CCN(C(=O)OC(C)(C)C)CC3)nc2n1)C1CCC(F)(F)CC1 (some centres unmarked) and give its measured pIC50.
A. 8.10

Q. Consider the molecule Cc1nonc1C(=O)N[C@H](c1cn2ncc(C3(N4C[C@H](C(F)(F)F)NC4=O)CCN(CC(C)(F)F)CC3)nc2n1)C1CCC(F)(F)CC1 (single isomer, unassigned) and give its measured pIC50.
A. 6.50

Q. Consider the molecule Cc1nonc1C(=O)N[C@H](c1cn2ncc(C3(N4CC(C(F)(F)F)NC4=O)CCNCC3)nc2n1)C1CCC(F)(F)CC1 (some centres unmarked) and give its measured pIC50.
A. 7.50

Q. Consider the molecule Cc1nonc1C(=O)N[C@H](c1cn2ncc(C3(N4C[C@@H](C(F)(F)F)NC4=O)CCOCC3)nc2n1)C1CCC(F)(F)CC1 (single isomer, unassigned) and give its measured pIC50.
A. 8.40

Q. Consider the molecule Cc1nonc1C(=O)N[C@H](c1cn2ncc(C3(N4C[C@H](C(F)(F)F)NC4=O)CCN(C)CC3)nc2n1)C1CCC(F)(F)CC1 (single isomer, unassigned) and give its measured pIC50.
A. 6.70

Q. Consider the molecule Cc1nonc1C(=O)N[C@H](c1cn2ncc([C@@]3(N4C[C@H](C(F)(F)F)NC4=O)CCOC3)nc2n1)C1CCC(F)(F)CC1 (single isomer, unassigned) and give its measured pIC50.
A. 5.10
